TARGET_ENTITY: OATP1B1 (Homo sapiens)
Sequence (Q9Y6L6 whole entry): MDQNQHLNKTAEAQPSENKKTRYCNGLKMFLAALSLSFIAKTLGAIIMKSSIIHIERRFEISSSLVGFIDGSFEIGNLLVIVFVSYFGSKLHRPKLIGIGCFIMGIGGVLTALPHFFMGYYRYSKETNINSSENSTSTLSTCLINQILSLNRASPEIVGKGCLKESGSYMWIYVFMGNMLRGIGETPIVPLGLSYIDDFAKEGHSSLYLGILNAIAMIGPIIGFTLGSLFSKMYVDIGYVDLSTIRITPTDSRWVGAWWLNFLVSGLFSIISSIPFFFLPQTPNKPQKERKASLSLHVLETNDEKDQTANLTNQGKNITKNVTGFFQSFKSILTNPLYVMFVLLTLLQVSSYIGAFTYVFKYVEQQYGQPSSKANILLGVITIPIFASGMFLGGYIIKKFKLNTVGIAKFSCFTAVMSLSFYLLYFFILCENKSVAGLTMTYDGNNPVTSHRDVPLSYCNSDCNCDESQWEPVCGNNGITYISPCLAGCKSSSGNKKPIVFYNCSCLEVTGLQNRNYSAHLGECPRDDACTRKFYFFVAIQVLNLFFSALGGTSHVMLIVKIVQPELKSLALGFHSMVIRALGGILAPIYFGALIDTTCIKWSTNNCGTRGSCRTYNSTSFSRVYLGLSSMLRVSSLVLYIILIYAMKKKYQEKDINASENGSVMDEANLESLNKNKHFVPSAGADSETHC
EXPERIMENTAL_PROTOCOL: TP_TRANSPORTER: uptake in OATP1B1-expressing HEK293 cells
Assay type: functional, cell-based
CONDITION_CONTEXT: HEK293 cells that express OATP1B1

| ENTRY_SMILES | TARGET_ENTITY | Km |
| --- | --- | --- |
| CC(C)c1c(C(=O)Nc2ccccc2)c(-c2ccccc2)c(-c2ccc(F)cc2)n1CC[C@@H](O)C[C@@H](O)CC(=O)O | OATP1B1 (Homo sapiens) | 12.4 µM |
